- Tested on: phenylquinone induced writhings
- Experiment summary: animal or person
- Test settings: Mus musculus, sc, read-out: Analgetic activity ED50, Mouse Writhing sc
Below: a set of entries, each annotated with reported ED50.
Property: ED50 (mg/kg)

Molecule	Property	Endpoint value
CN1CC[C@]23c4c5ccc(O)c4O[C@H]2[C@@H](O)C=C[C@H]3[C@H]1C5	ED50	0.26
Oc1ccc2c(c1)[C@]13CCN(CC4CC4)[C@H](C2)[C@@H]1CCOC3 [(-)-XI]	ED50	0.028
Oc1ccc2c(c1)[C@@]13CCCC[C@@]1(O)[C@@H](C2)N(CC1CCC1)CC3	ED50	0.045
CO[C@@]12CC[C@@]3(C[C@@H]1[C@](C)(O)C(C)(C)C)[C@H]1Cc4ccc(O)c5c4[C@@]3(CCN1CC1CC1)[C@H]2O5	ED50	0.021

---

Below: a set of entries, each annotated with reported Rat Writhing po/sc.
- Test system: Rat Writhing
- Experiment summary: Rat Writhing (analgetic activity)
- Assay type: in vivo
- Test settings: ratio of ED50 po/sc; Table 2

Compound	Rat Writhing po/sc
CN1CC[C@]23c4c5ccc(O)c4O[C@H]2[C@@H](O)C=C[C@H]3[C@H]1C5 [Morphine SO4]	10
CO[C@@]12CC[C@@]3(C[C@@H]1[C@](C)(O)C(C)(C)C)[C@H]1Cc4ccc(O)c5c4[C@@]3(CCN1CC1CC1)[C@H]2O5 [Buprenorphine]	12
Oc1ccc2c(c1)[C@@]13CCCC[C@@]1(O)[C@@H](C2)N(CC1CCC1)CC3 [Butorphanol]	53
Oc1ccc2c(c1)[C@]13CCN(CC4CC4)[C@H](C2)[C@@H]1CCOC3 [(-)-XI]	11

---

Below: a set of entries, each annotated with reported ED50.
- Tested on: Rat Writhing
- Experiment summary: Rat Writhing (analgetic activity)
- Format: in vivo
- Test settings: Rattus norvegicus; po; Table 2; read-out: Analgetic activity ED50, Rat Writhing po
Property: ED50 (mg/kg)

Compound	Endpoint value
Oc1ccc2c(c1)[C@]13CCN(CC4CC4)[C@H](C2)[C@@H]1CCOC3 [(-)-XI]	0.22
Oc1ccc2c(c1)[C@@]13CCCC[C@@]1(O)[C@@H](C2)N(CC1CCC1)CC3 [Butorphanol]	2.1
CN1CC[C@]23c4c5ccc(O)c4O[C@H]2[C@@H](O)C=C[C@H]3[C@H]1C5 [Morphine SO4]	1.6
CO[C@@]12CC[C@@]3(C[C@@H]1[C@](C)(O)C(C)(C)C)[C@H]1Cc4ccc(O)c5c4[C@@]3(CCN1CC1CC1)[C@H]2O5 [Buprenorphine]	0.16

---

Below: a set of entries, each annotated with reported ED50.
- Tested on: Morphine Antagonism Rat Tail Flick
- Experiment summary: Morphine antagonism, Rat Tail Flick (antagonist activity)
- Assay type: in vivo
- Test settings: Rattus norvegicus; po; Table 3; read-out: Antagonist activity ED50, Morphine Antagonism Rat Tail Flick po

Compound	Measured on	ED50
Oc1ccc2c(c1)[C@@]13CCCC[C@@]1(O)[C@@H](C2)N(CC1CCC1)CC3	Morphine Antagonism Rat Tail Flick	22 mg/kg
C=CCN1CC[C@]23c4c5ccc(O)c4O[C@H]2C(=O)CC[C@@]3(O)[C@H]1C5 [Naloxone, reference compound]	Morphine Antagonism Rat Tail Flick	2.7 mg/kg
Oc1ccc2c(c1)[C@]13CCN(CC4CC4)[C@H](C2)[C@@H]1CCOC3 [(-)-XI]	Morphine Antagonism Rat Tail Flick	~3 mg/kg
CO[C@@]12CC[C@@]3(C[C@@H]1[C@](C)(O)C(C)(C)C)[C@H]1Cc4ccc(O)c5c4[C@@]3(CCN1CC1CC1)[C@H]2O5	Morphine Antagonism Rat Tail Flick	0.92 mg/kg
